system-under-test: thrombin receptor (Homo sapiens)
Construct: CHRF membranes (Jones, Biochim. Biophys. Acta 1992, 1136, 272) are thawed from -70° C; endogenous in cells
Sequence (P25116 22-425): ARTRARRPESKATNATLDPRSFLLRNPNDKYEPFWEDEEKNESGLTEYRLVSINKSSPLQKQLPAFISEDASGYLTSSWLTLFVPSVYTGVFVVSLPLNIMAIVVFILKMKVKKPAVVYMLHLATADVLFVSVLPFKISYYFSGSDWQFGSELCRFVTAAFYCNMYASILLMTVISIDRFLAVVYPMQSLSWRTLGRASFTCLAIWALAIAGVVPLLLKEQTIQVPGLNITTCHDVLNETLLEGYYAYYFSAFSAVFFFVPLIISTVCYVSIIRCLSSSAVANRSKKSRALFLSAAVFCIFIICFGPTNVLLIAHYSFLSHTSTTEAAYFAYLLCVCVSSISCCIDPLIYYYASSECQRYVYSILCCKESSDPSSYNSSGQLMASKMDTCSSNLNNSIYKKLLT
assay-details: In vitro thrombin receptor binding assay (displacement of tritiated 721-40 from CHRF membranes)
details: tritiated 721-40 (Ser-pFPhe-Har-Leu-Har-Lys-Tyr-NH2) radioligand, read-out: Thr Receptor Binding IC50
quantity-kind: IC50
Please don't drop the unit; write it after the number.

Enquiry: GET /values?readout=IC50&item= Cc1oc([C@H](Cc2ccc(F)cc2)NC(=O)[C@@H](N)Cc2cn(Cc3ccccc3)cn2)nc1C(=O)N[C@@H](CC1CCCCC1)C(=O)N[C@@H](CCCNC(=N)N)C(=O)NCc1ccccc1
Return: 30 µM
